Assay: Experimental logP determined by HPLC
Assay type: physicochemical
Conditions: reversed-phase HPLC, RP-18 column
Task for the reader: assign each of the following compounds its reported chromatographic logP.
Lab note: jot the number down without any unit.

Recorded chromatographic logP (compound `CCCCCn1cc(-c2cn(C34CC5CC(CC(C5)C3)C4)nn2)c(=O)c2cc(-c3ccco3)ccc21` ): 5.18

Recorded chromatographic logP (compound `CCCCCn1cc(-c2cn(C34CC5CC(CC(C5)C3)C4)nn2)c(=O)c2cc(Br)ccc21` ): 5.83

Recorded chromatographic logP (compound `CCCCCn1cc(-c2cn(C34CC5CC(CC(C5)C3)C4)nn2)c(=O)c2cc(-c3ccc(OC(C)C)cc3)ccc21` ): 7.78
